Each recorded value in this set is attributed to ChEMBL document CHEMBL4038323.

study_system: Metabotropic glutamate receptor 2 (Homo sapiens)
test_method_notes: Positive allosteric modulation of human metabotropic glutamate receptor 2 expressed in CHOK1 cell membranes assessed as increase in glutamate-induced [35S]GTPgammaS binding preincubated for 30 mins followed by [35S]GTPgammaS addition measured after 30 mins by Topcount scintillation counting method
Assay type: functional
Sequence (Q14416 whole entry): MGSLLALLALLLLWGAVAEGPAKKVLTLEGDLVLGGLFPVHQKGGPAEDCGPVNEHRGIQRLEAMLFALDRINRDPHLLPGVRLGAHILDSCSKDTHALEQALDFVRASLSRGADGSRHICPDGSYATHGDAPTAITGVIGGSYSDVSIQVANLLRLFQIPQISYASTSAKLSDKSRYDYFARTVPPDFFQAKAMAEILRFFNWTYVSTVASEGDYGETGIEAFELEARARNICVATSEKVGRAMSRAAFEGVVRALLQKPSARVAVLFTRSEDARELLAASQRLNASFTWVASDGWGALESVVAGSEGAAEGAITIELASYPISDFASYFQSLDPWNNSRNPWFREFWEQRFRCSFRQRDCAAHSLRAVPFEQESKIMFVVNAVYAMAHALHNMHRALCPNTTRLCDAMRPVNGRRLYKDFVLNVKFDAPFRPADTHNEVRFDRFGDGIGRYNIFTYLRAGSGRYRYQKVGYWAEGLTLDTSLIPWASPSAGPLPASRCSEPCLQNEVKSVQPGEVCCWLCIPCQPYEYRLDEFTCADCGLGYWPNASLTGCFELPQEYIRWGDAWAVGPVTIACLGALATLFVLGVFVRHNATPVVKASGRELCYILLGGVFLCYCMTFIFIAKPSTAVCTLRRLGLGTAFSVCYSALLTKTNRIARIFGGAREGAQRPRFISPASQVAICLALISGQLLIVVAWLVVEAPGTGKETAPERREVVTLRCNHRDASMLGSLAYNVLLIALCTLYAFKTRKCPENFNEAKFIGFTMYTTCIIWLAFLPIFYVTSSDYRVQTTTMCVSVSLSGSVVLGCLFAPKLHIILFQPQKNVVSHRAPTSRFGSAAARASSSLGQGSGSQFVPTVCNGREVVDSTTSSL
pEC50: −log10 of the molar value.
property: pEC50

Answered cases to consult:
O[C@H]1CC[C@H](Nc2ccc(-c3ccn4c(CC(F)(F)F)nnc4c3Cl)cc2Cl)CC1 | 7.38
CC(C)Nc1ccc(-c2ccn3c(CC4CC4)nnc3c2C(F)(F)F)cc1Cl | 7.76
CCOCc1nnc2c(Cl)c(-c3ccc(Oc4ccc(C)nc4C)c(F)c3)ccn12 | 7.13
Cc1ccc(Oc2ccc(-c3ccn4c(CC(F)(F)F)nnc4c3Cl)cc2F)c(C)n1 | 7.53
CCOCc1nnc2c(C(F)(F)F)c(-c3ccc(Oc4ccc(C)nc4C)c(F)c3)ccn12 | 7.53
Fc1cc(-c2ccn3c(CC4CC4)nnc3c2C(F)(F)F)ccc1NC1CC1 | 7.52

1: Cc1ccc(Oc2ccc(-c3ccn4c(CC5CC5)nnc4c3Cl)cc2F)c(C)n1
2: N#Cc1c(N2CCC(c3ccccc3)CC2)ccn(CC2CC2)c1=O
3: Clc1cc(-c2ccn3c(CC4CC4)nnc3c2Cl)ccc1OC1CCOCC1
4: Cc1ccc(Oc2ccc(-c3ccn4c(CC5CC5)nnc4c3C)cc2Cl)c(C)n1
IN: Order the records by pEC50, with each subsequent value no larger than the one before. List the labels in the requested order.
OUT: 4, 1, 2, 3
(4: 7.76, 1: 7.39, 2: 7.10, 3: 6.65)

----------
study_system: Metabotropic glutamate receptor 2 (Homo sapiens, UniProt Q14416)
test_method_notes: Displacement of [3H]JNJ-46281222 from human metabotropic glutamate receptor 2 expressed in CHOK1 cell membranes assessed as association rate constant measured every 30 sec for 120 mins by scintillation proximity assay
Sequence (Q14416 19-872 limits assumed): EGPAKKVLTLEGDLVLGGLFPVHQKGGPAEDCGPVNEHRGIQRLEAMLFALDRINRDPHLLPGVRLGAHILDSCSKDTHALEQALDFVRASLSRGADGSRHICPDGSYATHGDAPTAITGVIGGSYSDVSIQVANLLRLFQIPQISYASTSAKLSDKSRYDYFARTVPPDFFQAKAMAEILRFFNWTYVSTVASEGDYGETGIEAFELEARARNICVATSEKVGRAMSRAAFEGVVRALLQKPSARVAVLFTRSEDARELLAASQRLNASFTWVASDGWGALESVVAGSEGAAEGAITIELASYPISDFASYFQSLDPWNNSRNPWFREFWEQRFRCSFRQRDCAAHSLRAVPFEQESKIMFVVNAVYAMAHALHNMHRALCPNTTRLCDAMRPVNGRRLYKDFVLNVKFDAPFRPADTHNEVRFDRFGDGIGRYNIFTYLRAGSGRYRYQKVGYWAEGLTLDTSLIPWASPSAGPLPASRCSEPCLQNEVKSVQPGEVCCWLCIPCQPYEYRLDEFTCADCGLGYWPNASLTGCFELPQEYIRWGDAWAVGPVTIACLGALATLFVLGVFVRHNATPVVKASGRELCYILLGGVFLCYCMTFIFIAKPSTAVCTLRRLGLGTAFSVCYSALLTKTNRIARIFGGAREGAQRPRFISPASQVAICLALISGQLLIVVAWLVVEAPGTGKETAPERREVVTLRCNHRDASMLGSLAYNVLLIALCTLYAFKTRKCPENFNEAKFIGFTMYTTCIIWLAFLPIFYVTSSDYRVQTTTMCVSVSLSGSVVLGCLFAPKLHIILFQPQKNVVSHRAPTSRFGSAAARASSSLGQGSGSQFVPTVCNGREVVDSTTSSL
property: K (×10⁷ /M/min)

CC(C)Nc1ccc(-c2ccn3c(CC4CC4)nnc3c2C(F)(F)F)cc1Cl | 3.6
COc1ccc(CNc2ccc(-c3ccn4c(CC5CC5)nnc4c3C(F)(F)F)cc2)cn1 | 3.4
FC(F)(F)c1c(-c2ccc(OC3CCOCC3)c(Cl)c2)ccn2c(CC3CC3)nnc12 | 2
FC(F)(F)c1c(-c2ccc(NC3CC3)c(Cl)c2)ccn2c(CC3CC3)nnc12 | 7.7
COc1ccc(COc2ccc(-c3ccn4c(CC5CC5)nnc4c3C(F)(F)F)cc2)cn1 | 1.4

1: COc1ccc(COc2ccc(-c3ccn4c(CC5CC5)nnc4c3C(F)(F)F)cc2F)cn1
2: CC(C)Nc1ccc(-c2ccn3c(CC4CC4)nnc3c2C(F)(F)F)cc1F
IN: # compare K for 1 vs 2 ; return the one with the smaller value Response format: the label of the selected entry.
OUT: 1

----------
study_system: Metabotropic glutamate receptor 2 (Homo sapiens, UniProt Q14416)
test_method_notes: Positive allosteric modulation of human metabotropic glutamate receptor 2 expressed in CHOK1 cell membranes assessed as increase in glutamate-induced [35S]GTPgammaS binding preincubated for 30 mins followed by [35S]GTPgammaS addition measured after 30 mins by Topcount scintillation counting method
Assay type: functional
property: EC50 (nM)

A selection of reference data follows.
CC(C)Nc1ccc(-c2ccn3c(CC4CC4)nnc3c2C(F)(F)F)cc1F | 93.3
Cc1cc(Oc2ccc(-c3ccn4c(CC5CC5)nnc4c3C(F)(F)F)cc2F)cc(C)n1 | 64.6
O[C@H]1CC[C@H](Oc2ccc(-c3ccn4c(CC(F)(F)F)nnc4c3Cl)cc2Cl)CC1 | 158
Clc1cc(-c2ccn3c(CC4CC4)nnc3c2Cl)ccc1NC1CC1 | 29.5
Cc1cc(Oc2ccc(-c3ccn4c(CC5CC5)nnc4c3Cl)cc2F)ccn1 | 251
COc1ccc(COc2ccc(-c3ccn4c(CC5CC5)nnc4c3C(F)(F)F)cc2)cn1 | 57.5

A: Cc1ccc(Oc2ccc(-c3ccn4c(CC5CC5)nnc4c3C)cc2F)c(C)n1
B: Cc1ccc(Oc2ccc(-c3ccn4c(CC5CC5)nnc4c3Cl)cc2Cl)c(C)n1
IN: Which of the two items, A and B , has the greater recorded EC50? Which one? Tell me its label.
OUT: A

P: CC(C)C(=O)c1ccc(OCc2ccc(CNC(=O)c3cn(C)cn3)cc2)c(C(F)(F)F)c1O
Q: CC(C)Nc1ccc(-c2ccn3c(CC4CC4)nnc3c2Cl)cc1F
IN: Could you tell me which of P and Q has the lower EC50 reading? Lab log: write the label of the selected item as the result.
OUT: P
